Target: T1, MdNAC104-His (Malus domestica, UniProt D9ZJ88 1-204)
T1 sequence: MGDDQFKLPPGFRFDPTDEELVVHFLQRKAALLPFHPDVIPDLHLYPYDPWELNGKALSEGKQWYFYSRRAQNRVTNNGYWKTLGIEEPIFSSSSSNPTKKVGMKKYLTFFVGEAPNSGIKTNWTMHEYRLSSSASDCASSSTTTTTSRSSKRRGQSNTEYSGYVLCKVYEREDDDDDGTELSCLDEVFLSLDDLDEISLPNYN
Test: EMSA; LightShift Chemiluminescent EMSA kit (Thermo) per manufacturer; buffer, salt, pH and temperature not stated
Details: protein: recombinant; tags: His (pET32a); chain copies: 2; label: biotin; blunt
measured attribute: binding result

# example entries with known answers
binder	measured attribute	val
MdFSD2-P3 (dsDNA) DNA 1: GTCATTTTGGACGAAAACTTTAATGAAAAT DNA 2: ATTTTCATTAAAGTTTTCGTCCAAAATGAC	binding result	binds
MdCBF1-P1 (dsDNA) DNA 1: CATCCCCACGAAAAGTACACAACCAACACA DNA 2: TGTGTTGGTTGTGTACTTTTCGTGGGGATG	binding result	binds
MdF3H-a-P7 (dsDNA) DNA 1: CAAAAATATTTTCCGTAATGAAGTGTCTTG DNA 2: CAAGACACTTCATTACGGAAAATATTTTTG	binding result	binds
MdCBF3-P1-mut (dsDNA) DNA 1: TATATATATTAAAAAAGATTGGGTGATGAG DNA 2: CTCATCACCCAATCTTTTTTAATATATATA	binding result	no binding
MdANS-b-P4 (dsDNA) DNA 1: GATTCCTATATATACGTAACTAGCTCATAG DNA 2: CTATGAGCTAGTTACGTATATATAGGAATC	binding result	binds

Go through the items and report each one's binding result.
1. MdCBF3-P1 (dsDNA) DNA 1: TATATATATTCATGTGGATTGGGTGATGAG DNA 2: CTCATCACCCAATCCACATGAATATATATA
2. MdCHS-b-P2 (dsDNA) DNA 1: GATGTGGAACATGTGTGGCTATTAGGTTGGTATTCACACGAAATACGACCTACTATATAC DNA 2: GTATATAGTAGGTCGTATTTCGTGTGAATACCAACCTAATAGCCACACATGTTCCACATC
3. MdCHS-b-P4 (dsDNA) DNA 1: TCCTTTTTACGAAAGTGACATTACAACGAA DNA 2: TTCGTTGTAATGTCACTTTCGTAAAAAGGA
4. MdF3H-a-P5 (dsDNA) DNA 1: CAATTGAGTAATTTCGTTCTTAATTCTTTT DNA 2: AAAAGAATTAAGAACGAAATTACTCAATTG
5. MdPRXR1.1-P2 (dsDNA) DNA 1: TTTGTAACTAACGGAAAACTTAATACAAAA DNA 2: TTTTGTATTAAGTTTTCCGTTAGTTACAAA
6. MdCBF1-P1-mut (dsDNA) DNA 1: CATCCCCAAAAAAAGTACACAACCAACACA DNA 2: TGTGTTGGTTGTGTACTTTTTTTGGGGATG

Completion:
1: binds; 2: binds; 3: binds; 4: binds; 5: binds; 6: no binding
